Test: in vitro
Conditions: human
measurement.label: CC50

>>> value("N#C[C@@]1(n2ccc(N)nc2=O)O[C@H](CO)[C@@H](O)[C@H]1O [Compound A]")
"> 100 µM"

* * *

Test: Non-compartmental PK analysis of IV and oral Compound A in mice
Type: in vivo
Conditions: mouse, plasma, oral 30 mg/kg, excluding PO_m3 (possible outlier), read-out: mean oral AUCPO
measurement.label: AUC (ng·h/mL)

>>> value("N#C[C@@]1(n2ccc(N)nc2=O)O[C@H](CO)[C@@H](O)[C@H]1O [Compound A]")
28300

* * *

Assay: Quantification of Compound A in mouse lung, brain and plasma
Format: in vivo, CD-1 mice
Conditions: CD-1, mouse, brain, po, 30 mg/kg, PO 30 mg/kg, 7 h, individual mice; read-out: Brain concentration
measurement.label: concentration at 7 h (ng/g)

>>> value("N#C[C@@]1(n2ccc(N)nc2=O)O[C@H](CO)[C@@H](O)[C@H]1O")
73.9

* * *

Experiment: Cytotoxicity in Huh7 cells
Assay type: cell-based
Conditions: human
measurement.label: CC50

>>> value("CC(C)C(=O)OC[C@H]1O[C@@](C#N)(n2ccc(=O)[nH]c2=O)C(O)C1O (stereo partly drawn) [drawing 132]")
"88.9 µM"
>>> value("CC(C)C(=O)OC[C@H]1O[C@@](C#N)(n2ccc(N)nc2=O)C(O)C1O (stereo partly drawn) [drawing 133]")
"> 100 µM"
>>> value("CCCCCCCC(=O)OC[C@H]1O[C@@](C#N)(n2ccc(N)nc2=O)C(O)C1O (stereo partly drawn) [drawing 134]")
"77.8 µM"
>>> value("N#C[C@@]1(n2ccc(N)nc2=O)O[C@H](CO)[C@@H](O)[C@H]1O")
"> 100 µM"
>>> value("N#C[C@@]1(n2ccc(=O)[nH]c2=O)O[C@H](CO)C(O)C1O (stereo partly drawn) [drawing 130]")
"> 100 µM"
>>> value("CC(C)OC(=O)[C@H](C)N[P@](=O)(OC[C@H]1O[C@@](C#N)(n2ccc(N)nc2=O)C(O)C1O)Oc1ccccc1 (stereo partly drawn) [drawing 131]")
"> 100 µM"

* * *

Test: Non-compartmental PK analysis of IV and oral Compound A in mice
Type: in vivo
Details: mouse, plasma, IV 15 mg/kg, over the course of 7 hours, FIG. 8B, read-out: plasma concentration after 7 hours
measurement.label: concentration at 7 h

>>> value("N#C[C@@]1(n2ccc(N)nc2=O)O[C@H](CO)[C@@H](O)[C@H]1O [Compound A]")
"~100 ng/mL"

* * *

Assay: Cytotoxicity in Vero cells
Details: African green monkey, Vero kidney cells
Reported values of CC50 for individual entries
measurement.label: CC50

>>> value("N#C[C@@]1(n2ccc(=O)[nH]c2=O)O[C@H](CO)C(O)C1O (some centres unmarked) [drawing 130]")
"> 100 µM"
>>> value("CCCCCCCC(=O)OC[C@H]1O[C@@](C#N)(n2ccc(N)nc2=O)C(O)C1O (some centres unmarked) [drawing 134]")
"45.7 µM"
>>> value("CCC(CC)COC(=O)[C@H](C)N[P@](=O)(OC[C@H]1O[C@@](C#N)(c2ccc3c(N)ncnn23)[C@H](O)[C@@H]1O)Oc1ccccc1 [Remdesivir, reference compound]")
"> 100 µM"
>>> value("CC(C)C(=O)OC[C@H]1O[C@@](C#N)(n2ccc(N)nc2=O)C(O)C1O (some centres unmarked) [drawing 133]")
"73.8 µM"
>>> value("CC(C)OC(=O)[C@H](C)N[P@](=O)(OC[C@H]1O[C@@](C#N)(n2ccc(N)nc2=O)C(O)C1O)Oc1ccccc1 (some centres unmarked) [drawing 131]")
"> 100 µM"
>>> value("CC(C)[C@H](N)C(=O)OC1C(O)[C@](C#N)(n2ccc(N)nc2=O)O[C@@H]1CO (some centres unmarked) [drawing 135]")
"93.5 µM"
>>> value("N#C[C@@]1(n2ccc(N)nc2=O)O[C@H](CO)[C@@H](O)[C@H]1O")
"> 100 µM"
>>> value("CC(C)C(=O)OC[C@H]1O[C@@](C#N)(n2ccc(=O)[nH]c2=O)C(O)C1O (some centres unmarked) [drawing 132]")
"> 100 µM"
